Tested on: LDAN
RUN DESCRIPTION: Cancer cell line panel, LDAN (NSCLC)
Assay type: cell-based
PARTICULARS: read-out: Cisplatin
Description: Relative drug sensitivities (Resistance Factor) and IC50 values were determined by a modified MTT assay (see, e.g., Mosmann, 1983; Plumb et al., 1989), as described below: • (1) Trypsinise a sub-confluent monolayer culture and collect cells in growth medium containing serum. Centrifuge the suspension (200 g, 5 minutes) to pellet cells, re-suspend in growth medium, and count cells. […] IC10 or IC90 values can be determined in the same manner. […]
REPORTED ENDPOINT: IC50 (nM)
Write down the numeric answer in nM and omit the unit.

Recorded result, N.N.[Cl][Pt][Cl] [Cisplatin, reference compound] , IC50: 1230
